The values you see were collected from patent US20040242627A1.

- Tested on: platelet rich plasma (PRP), thrombin-induced platelet aggregation
- Assay: Inhibitory effects on platelet aggregation using platelet rich plasma (thrombin-induced)
- Assay type: cell-based
- Experimental Parameters: Homo sapiens, PRP of healthy adult, thrombin 0.5-1.5 units/ml, area under aggregation curve, read-out: Thr IC50
Structures can show the parent of a compound that is named as a salt.
Quantity Measured: pIC50
Value format note: pIC50 is -log10 of concentration (mol/L); just state the number.

Response field pIC50 (platelet rich plasma (PRP), thrombin-induced platelet aggregation) for item CC(C)(C)c1cc(C(=O)Cn2c(=N)n(Cc3ccc(N)cc3)c3ccccc32)cc(C(C)(C)C)c1O [Example 40, dihydrochloride] : 5.89
